# Test system: NCI-H522 lung
# protocol-notes: NCI-60 one-dose screen, 48 h
# assay-context: 10 µM unless noted
Compounds without any hit were thinned out: in the full panel of roughly 83,000, 20% have a hit. Activity calls are given as the source filed them. Rule for the calls: active = growth percent below 10; inactive = the rest.
Outcomes you can answer with include only these: true for active, false for inactive

What classification did NC1=NN(c2ccccc2)C(=O)/C1=C/c1ccc(Cl)cc1 end up with in this test?
false

Hello, I am checking results. What call was entered for Cc1ccc(-c2nn(Cc3cn(-c4cc(C)nc5ccccc45)nn3)c3ncnc(N)c23)cc1 ?
false

Please indicate how the test categorized Cc1cc(C)n(Cc2cc(C(C)(C)C)cc(C(C)(C)C)c2)c(=O)c1C#N .
false

Please indicate how the test categorized NC(N)=N/N=C/c1ccc(-c2ccc(-c3ccc(Cl)cn3)s2)cc1 .
false

Called result for O=C(NO)c1ccc(Cn2c(=O)n(CCc3ccc(O)cc3)c(=O)c3ccccc32)cc1
true

Can you look up the reported call for N#Cc1c(-c2ccc(O)cc2)c2c(N)nn(-c3ccccc3)c2[nH]c1=O for me?
false

Can you look up the reported call for CN(C)CCCCC(C(=O)CBr)(c1ccccc1)c1ccccc1 for me?
true

Recorded test call requested for COc1ccc(-c2n[nH]nc2-c2cc3ccccc3s2)cc1O
true

For this compound, state the assay outcome: Fc1ccc(Nc2nnc(-c3ccc(Cl)cc3)o2)cc1
false

What outcome does the record of this test show for COc1ccc2c(c1)c(-c1nc(-c3c[nH]c4ncccc34)cs1)cn2CCN ?
false

// param item: C/C(=N\Nc1cc(C)c2cc(C)ccc2n1)c1ccccn1 ; yields the recorded call
true
